The entries below come with measured IC50 values attached.
# target.under.test: PRMT5 (Homo sapiens, UniProt O14744)
# Construct: purchased Viva (custom protein)
# Sequence (O14744 whole entry): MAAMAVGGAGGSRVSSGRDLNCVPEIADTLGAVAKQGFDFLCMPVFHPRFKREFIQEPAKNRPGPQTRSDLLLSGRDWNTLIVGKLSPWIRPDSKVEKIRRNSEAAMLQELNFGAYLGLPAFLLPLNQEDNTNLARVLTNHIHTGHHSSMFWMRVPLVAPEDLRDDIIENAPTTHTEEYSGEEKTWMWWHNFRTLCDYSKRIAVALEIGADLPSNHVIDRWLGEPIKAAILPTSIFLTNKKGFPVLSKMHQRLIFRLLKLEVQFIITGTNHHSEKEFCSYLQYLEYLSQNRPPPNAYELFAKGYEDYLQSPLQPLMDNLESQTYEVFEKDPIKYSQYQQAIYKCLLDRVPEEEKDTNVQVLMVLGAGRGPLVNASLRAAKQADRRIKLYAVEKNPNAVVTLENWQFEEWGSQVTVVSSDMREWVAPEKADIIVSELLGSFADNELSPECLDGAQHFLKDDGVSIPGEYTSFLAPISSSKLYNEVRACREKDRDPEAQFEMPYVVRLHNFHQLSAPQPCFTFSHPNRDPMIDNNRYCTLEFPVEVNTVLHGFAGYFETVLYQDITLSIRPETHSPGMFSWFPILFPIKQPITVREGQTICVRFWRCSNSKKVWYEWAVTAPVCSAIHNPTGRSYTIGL
# Sequence (Q9BQA1 whole entry partner): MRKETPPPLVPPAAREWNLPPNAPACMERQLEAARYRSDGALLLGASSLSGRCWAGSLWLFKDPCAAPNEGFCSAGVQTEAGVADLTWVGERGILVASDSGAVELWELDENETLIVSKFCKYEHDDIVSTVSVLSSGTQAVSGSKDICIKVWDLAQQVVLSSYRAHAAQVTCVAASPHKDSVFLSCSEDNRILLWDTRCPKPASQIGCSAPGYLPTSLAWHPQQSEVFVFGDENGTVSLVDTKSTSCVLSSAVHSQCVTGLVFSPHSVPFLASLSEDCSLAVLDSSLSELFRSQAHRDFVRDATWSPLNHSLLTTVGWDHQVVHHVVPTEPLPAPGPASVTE
# experimental.protocol: PRMT5 biochemical IC50 assay with MTA as cofactor
# condition.label: PRMT5, MTA as cofactor; read-out: MTA IC50

Would you please look over these solved cases?
[
  {
    "compound": "Cc1cc(NC(=O)C(=O)N2C[C@H](C)C(F)(F)C[C@H]2c2ccccc2)cnc1N (single isomer, unassigned) [Compound 735]",
    "target.under.test": "PRMT5 (Homo sapiens, UniProt O14744)",
    "observation.type": "IC50",
    "observed": "< 50 nM"
  },
  {
    "compound": "Cc1cc(NC(=O)C(=O)N2C[C@H](C)CC[C@H]2c2cc(F)cc(Cl)c2)cnc1N (single isomer, unassigned) [Compound 659]",
    "target.under.test": "PRMT5 (Homo sapiens, UniProt O14744)",
    "observation.type": "IC50",
    "observed": "< 50 nM"
  }
]

Please examine the following record next.
Problem: May I ask what IC50 has been recorded for Cc1cc(NC(=O)C(=O)N2C[C@@H](C)CC[C@@H]2c2ccc3sc(C4CC(C)(C)N(C)C(C)(C)C4)nc3c2)cnc1C [Compound 1315] ?
Solution: < 50 nM

###

# target.under.test: PRMT5 (Homo sapiens, UniProt O14744)
# Construct: purchased Viva (custom protein)
# experimental.protocol: PRMT5 biochemical IC50 assay with MTA as cofactor
# condition.label: PRMT5, MTA as cofactor; read-out: MTA IC50
pIC50: −log10 of the molar value.
The entries below come with measured pIC50 values attached.

[
  {
    "compound": "Cc1cc(NC(=O)C(=O)N2C[C@H](C)CC[C@H]2c2ccc(NCC(F)(F)F)cc2)cnc1N (single isomer, unassigned) [Compound 522]",
    "pIC50": "> 7.30"
  },
  {
    "compound": "Cc1cc(NC(=O)C(=O)N2C[C@H](C)CC[C@H]2c2ccc(N3CCN(C)CC3)nc2)cnc1N (single isomer, unassigned) [Compound 1014]",
    "pIC50": "> 7.30"
  },
  {
    "compound": "CCc1cc(NC(=O)C(=O)N2C[C@@H](C)CC[C@@H]2c2ccc3sc(C4(CN(C)C)COC4)nc3c2)cnc1N [Compound 1165]",
    "pIC50": "> 7.30"
  },
  {
    "compound": "C[C@@H]1CC[C@@H](c2cccc(C(F)F)c2)N(C(=O)C(=O)Nc2cncc(C(N)=O)c2)C1 (racemic) [Compound 268]",
    "pIC50": "> 7.30"
  },
  {
    "compound": "CCc1cc(NC(=O)C(=O)N2C[C@@H](C)CC[C@@H]2c2ccc3sc([C@H]4COCCN4C)nc3c2)cnc1N [Compound 1245]",
    "pIC50": "> 7.30"
  }
]

Problem: May I ask what pIC50 has been recorded for Cn1nccc1C1CCCCN1C(=O)C(=O)Nc1cncc(C(N)=O)c1 (stereo not shown) [Compound 26] ?
Solution: 6.30 to 7.30

Problem: Note, next up: CCc1cc(NC(=O)C(=O)N2C[C@@H](C)CC[C@@H]2c2cccc3[nH]ncc23)cnc1N (single isomer, unassigned) [Compound 928]
Solution: > 7.30

Problem: Note, next up: C[C@@H]1CC[C@@H](c2ccc(C(F)(F)F)cc2)N(C(=O)C(=O)Nc2cncc(C(N)=O)c2)C1 (racemic) [Compound 251]
Solution: > 7.30

Problem: Note, next up: CCc1cc(NC(=O)C(=O)N2C[C@H](C)C(F)(F)C[C@H]2c2ccc3[nH]ncc3c2)cnc1N (single isomer, unassigned) [Compound 1357]
Solution: > 7.30

Problem: Note, next up: CCc1cc(NC(=O)C(=O)N2C[C@@H](C)[C@@H](OC)C[C@@H]2c2cccc(OCCN(C)C)c2)cnc1N (racemic) [Compound 1139]
Solution: 6.30 to 7.30

###

# target.under.test: PRMT5 (Homo sapiens, UniProt O14744)
# Construct: purchased Viva (custom protein)
# experimental.protocol: PRMT5 biochemical IC50 assay with SAM as cofactor
# condition.label: PRMT5, SAM as cofactor; read-out: SAM IC50
pIC50: −log10 of the molar value.
The entries below come with measured pIC50 values attached.

Would you please look over these solved cases?
[
  {
    "compound": "Cc1cc([C@@H]2CC[C@@H](C)CN2C(=O)C(=O)Nc2cncc(C(N)=O)c2)ccn1 (single isomer, unassigned)",
    "observation.type": "pIC50",
    "observed": "< 6.30"
  },
  {
    "compound": "Cc1cncc(NC(=O)C(=O)N2C[C@H](C)CC[C@H]2c2cccs2)c1 (single isomer, unassigned)",
    "observation.type": "pIC50",
    "observed": "6.30 to 7.30"
  },
  {
    "compound": "Cc1cc(NC(=O)C(=O)N2C[C@H](C)CC[C@H]2c2ccc3c(c2)CNC3=O)cnc1N (single isomer, unassigned)",
    "observation.type": "pIC50",
    "observed": "> 7.30"
  },
  {
    "compound": "C[C@@H]1CC[C@@H](c2cccc(C#N)c2)N(C(=O)C(=O)Nc2cncc(C(N)=O)c2)C1 (racemic)",
    "observation.type": "pIC50",
    "observed": "6.30 to 7.30"
  },
  {
    "compound": "C[C@@H]1CC[C@@H](c2ccc3sc(N)nc3c2)N(C(=O)C(=O)Nc2cncc(C(N)=O)c2)C1 (single isomer, unassigned)",
    "observation.type": "pIC50",
    "observed": "< 6.30"
  },
  {
    "compound": "CCc1cc(NC(=O)C(=O)N2C[C@@H](C)CC[C@@H]2c2ccc3sc([C@@H]4C[C@H]5CN(C)C[C@H]54)nc3c2)cnc1N",
    "observation.type": "pIC50",
    "observed": "> 7.30"
  },
  {
    "compound": "Cc1cc(NC(=O)C(=O)N2C[C@@H](C)CC[C@@H]2c2cc[nH]n2)cnc1N (single isomer, unassigned)",
    "observation.type": "pIC50",
    "observed": "6.30 to 7.30"
  },
  {
    "compound": "Cc1cc(NC(=O)C(=O)N2CCC(N(C)C)C[C@H]2c2ccccc2)cnc1N (mixture of isomers)",
    "observation.type": "pIC50",
    "observed": "< 6.30"
  },
  {
    "compound": "COc1cc([C@@H]2CC[C@@H](C)CN2C(=O)C(=O)Nc2cncc(C(N)=O)c2)cnc1C(F)(F)F (racemic)",
    "observation.type": "pIC50",
    "observed": "< 6.30"
  },
  {
    "compound": "Cc1n[nH]c2ccc([C@@H]3CC[C@@H](C)CN3C(=O)C(=O)Nc3cncc(C(N)=O)c3)cc12 (racemic)",
    "observation.type": "pIC50",
    "observed": "6.30 to 7.30"
  }
]

Problem: May I ask what pIC50 has been recorded for C[C@@H]1CC[C@@H](c2cccc(C(N)=O)c2)N(C(=O)C(=O)Nc2cncc(C(N)=O)c2)C1 (racemic) ?
Solution: 6.30 to 7.30

Problem: Note, next up: CCc1nc2cc([C@@H]3CC[C@@H](C)CN3C(=O)C(=O)Nc3cnc(N)c(C)c3)ccc2s1 (racemic)
Solution: 6.30 to 7.30

Problem: Note, next up: C[C@@H]1CC[C@@H](c2ccc3nn(CCN(C)C)cc3c2)N(C(=O)C(=O)Nc2cnc(N)c(C3CC3)c2)C1 (single isomer, unassigned)
Solution: > 7.30

###

# target.under.test: PRMT5 (Homo sapiens, UniProt O14744)
# Construct: purchased Viva (custom protein)
# experimental.protocol: PRMT5 biochemical IC50 assay with SAM as cofactor
# condition.label: PRMT5, SAM as cofactor; read-out: SAM IC50
The entries below come with measured IC50 values attached.

[
  {
    "compound": "COc1ncc(NC(=O)C(=O)N2C[C@@H](C)CC[C@@H]2c2ccc(O)cc2)cc1C(N)=O (single isomer, unassigned) [Compound 288]",
    "target.under.test": "PRMT5 (Homo sapiens, UniProt O14744)",
    "IC50": "50 to 500 nM"
  },
  {
    "compound": "Cc1cncc(NC(=O)C(=O)N2C[C@@H](C)CC[C@@H]2c2cccs2)c1 (racemic) [Compound 60]",
    "target.under.test": "PRMT5 (Homo sapiens, UniProt O14744)",
    "IC50": "> 500 nM"
  },
  {
    "compound": "C[C@@H]1CC[C@@H](c2ccc(O)c(C(C)(C)C)c2)N(C(=O)C(=O)Nc2cncc(C(N)=O)c2)C1 (racemic) [Compound 610]",
    "target.under.test": "PRMT5 (Homo sapiens, UniProt O14744)",
    "IC50": "50 to 500 nM"
  }
]

Please examine the following record next.
Problem: May I ask what IC50 has been recorded for C[C@@H]1CC[C@@H](c2ccc3sc(CCN(C)C)nc3c2)N(C(=O)C(=O)Nc2cnc(N)c(C3CC3)c2)C1 (single isomer, unassigned) [Compound 1218] ?
Solution: < 50 nM

// provenance: patent US11999727B2
